Target: mouse melanocortin-1 receptor (mouse, UniProt Q01727 1-315)
Sequence (Q01727 whole entry): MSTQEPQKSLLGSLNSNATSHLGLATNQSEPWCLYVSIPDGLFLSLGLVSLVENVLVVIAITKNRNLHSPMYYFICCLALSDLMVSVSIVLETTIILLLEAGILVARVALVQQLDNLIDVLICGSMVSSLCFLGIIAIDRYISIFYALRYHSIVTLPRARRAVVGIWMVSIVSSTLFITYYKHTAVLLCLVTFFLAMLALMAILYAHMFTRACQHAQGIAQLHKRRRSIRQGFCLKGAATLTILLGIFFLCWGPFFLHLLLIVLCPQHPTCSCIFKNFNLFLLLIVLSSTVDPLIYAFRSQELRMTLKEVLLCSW
Test: cell-based or functional assay
Non-standard residues stand in square brackets, D forms with d. dPhe(4-I) = N[C@H](Cc1ccc(I)cc1)C(=O)O; d2Nal = N[C@H](Cc1ccc2ccccc2c1)C(=O)O; Bta = N[C@@H](Cc1csc2ccccc12)C(=O)O; Tic = O=C(O)[C@@H]1Cc2ccccc2CN1
Field: cAMP AlphaScreen, HEK293 cells stably expressing the receptor: agonist EC50. Provide a value for each of the binders that follow.
Numbers only, in nM.

These solved cases illustrate the format of a correct answer.
BINDER	UNITS_SYMBOL	OBSERVED_MEASUREMENT
Ac-FR[dPhe(4-I)][Tic]-NH2 [compound 22]	nM	8
Ac-[d2Nal]R[dPhe(4-I)][Tic]-NH2 [compound 24]	nM	7
HRFX (HELM PEPTIDE1{[ac].H.R.[O=C([C@@H](Cc1ccc(I)cc1)N[*:1])[*:2]].[Tic].[am]}$$$$V2.0; SMILES CC(=O)N[C@@H](Cc1c[nH]cn1)C(=O)N[C@@H](CCCNC(=N)N)C(=O)N[C@H](Cc1ccc(I)cc1)C(=O)N1Cc2ccccc2C[C@H]1C(N)=O) [Ac-His-Arg-(pI)DPhe-Tic-NH2]	nM	0.71

// moving on: another record for cAMP AlphaScreen, HEK293 cells stably expressing the receptor: agonist EC50
get_value(item= Ac-FR[dPhe(4-I)][Bta]-NH2 [compound 15] , readout=cAMP AlphaScreen, HEK293 cells stably expressing the receptor: agonist EC50) returns 330
